// values below are IC50; system is Cruzipain (Trypanosoma cruzi)
Numbers only, in nM.

Mol Smiles: Cc1ccc(/C(=N\N=C(\N)S)c2ccc(Cl)c(Cl)c2)cc1
Experimental Endpoint: IC50
Unit Annotation: nM
Recorded Number: 40
--
Mol Smiles: N/C(S)=N/N=C(\COc1ccccc1)c1ccc(Cl)c(Cl)c1
Experimental Endpoint: IC50
Unit Annotation: nM
Recorded Number: 30
--
Mol Smiles: N/C(S)=N/N=C(\C=C\c1ccccc1)c1ccc(Cl)c(Cl)c1
Experimental Endpoint: IC50
Unit Annotation: nM
Recorded Number: 30

Here is another molecule to look at.
IN: Query IC50 on Cruzipain (Trypanosoma cruzi) for `N/C(S)=N/N=C(\Cc1ccccc1)c1ccc(Cl)c(Cl)c1`
OUT: 80

###

- Measurement Target: Cruzipain (Trypanosoma cruzi, UniProt P25779)
- Sequence (P25779 whole entry): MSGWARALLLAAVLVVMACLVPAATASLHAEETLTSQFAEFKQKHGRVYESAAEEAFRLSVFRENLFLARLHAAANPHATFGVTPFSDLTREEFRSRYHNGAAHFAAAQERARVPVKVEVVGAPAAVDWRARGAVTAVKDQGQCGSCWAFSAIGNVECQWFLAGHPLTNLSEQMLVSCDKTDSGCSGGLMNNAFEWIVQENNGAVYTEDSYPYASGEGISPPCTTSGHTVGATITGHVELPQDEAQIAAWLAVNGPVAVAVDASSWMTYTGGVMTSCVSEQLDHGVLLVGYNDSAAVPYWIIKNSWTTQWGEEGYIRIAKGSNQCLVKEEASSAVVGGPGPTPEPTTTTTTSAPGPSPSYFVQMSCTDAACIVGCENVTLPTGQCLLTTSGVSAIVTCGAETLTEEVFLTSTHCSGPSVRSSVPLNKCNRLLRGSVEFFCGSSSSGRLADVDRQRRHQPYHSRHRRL
Kindly state IC50 for each of the entries shown.
Answers are plain numbers, in nM.

Example compounds with recorded IC50:
Compound: CCCC/C(=N\NC(N)=S)c1ccc(Cl)c(Cl)c1
IC50 / nM: 19
--
Compound: N/C(S)=N/N=C(/c1ccc(Cl)c(Cl)c1)C1CC1c1ccccc1 (stereo unspecified)
IC50 / nM: 30
--
Compound: N/C(S)=N/N=C(/c1ccc(Cl)c(Cl)c1)C1CCCCC1
IC50 / nM: 3000
--
Compound: CC/C(=N\N=C(\N)S)c1ccc(Cl)c(Cl)c1
IC50 / nM: 30

Here is another compound to look at.
IN: Form field: reported IC50 of `N/C(S)=N/N=C(\CCc1ccccc1)c1ccc(Cl)c(Cl)c1`
OUT: 40

###

- Measurement Target: Rhodesain (Trypanosoma brucei rhodesiense)
- Sequence (Q95PM0 whole entry): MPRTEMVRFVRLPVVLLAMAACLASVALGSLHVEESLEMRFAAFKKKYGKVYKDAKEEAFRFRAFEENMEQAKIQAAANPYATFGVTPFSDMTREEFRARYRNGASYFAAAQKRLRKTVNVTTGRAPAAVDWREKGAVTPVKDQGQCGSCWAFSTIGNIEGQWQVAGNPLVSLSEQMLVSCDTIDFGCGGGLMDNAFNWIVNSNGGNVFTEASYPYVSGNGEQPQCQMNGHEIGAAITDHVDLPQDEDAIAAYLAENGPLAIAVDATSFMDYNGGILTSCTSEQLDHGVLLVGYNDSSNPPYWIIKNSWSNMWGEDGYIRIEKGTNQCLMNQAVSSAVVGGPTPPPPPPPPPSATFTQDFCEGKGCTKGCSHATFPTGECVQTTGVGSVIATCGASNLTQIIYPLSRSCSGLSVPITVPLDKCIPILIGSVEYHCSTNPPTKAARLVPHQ
IC50 less than 80 nM is true (1); IC50 greater than or equal to 80 nM is false (0).

Compound: N/C(S)=N/N=C(\C=C\c1ccccc1)c1ccc(Cl)c(Cl)c1
Discrete Label: true (1)
--
Compound: N/C(S)=N/N=C(\COc1ccccc1)c1ccc(Cl)c(Cl)c1
Discrete Label: true (1)
--
Compound: CCCC/C(=N\NC(N)=S)c1ccc(Cl)c(Cl)c1
Discrete Label: true (1)
--
Compound: CC/C(=N\NC(N)=S)c1cccc(Br)c1
Discrete Label: false (0)
--
Compound: N/C(S)=N/N=C(/c1ccc(Cl)c(Cl)c1)C1CCCCC1
Discrete Label: false (0)

IN: Does the reported IC50 of the following compound sit strictly below 80 nM? N/C(S)=N/N=C(/c1ccc(Cl)c(Cl)c1)C1CC1c1ccccc1 (stereo unspecified)
OUT: true (1)

IN: Entry `N/C(S)=N/N=C(\CCc1ccccc1)c1ccc(Cl)c(Cl)c1` please
OUT: false (0)

IN: Entry `CC/C(=N\N=C(\N)S)c1ccc(Cl)c(Cl)c1` please
OUT: false (0)

IN: Entry `Cc1ccc(/C(=N\N=C(\N)S)c2ccc(Cl)c(Cl)c2)cc1` please
OUT: true (1)

IN: Entry `CC(C)(C)/C(=N\N=C(\N)S)c1ccc(Cl)c(Cl)c1` please
OUT: false (0)

###

// values below are IC50; system is Falcipain 2 (Plasmodium falciparum, UniProt Q9N6S8)
Sequence (Q9N6S8 whole entry): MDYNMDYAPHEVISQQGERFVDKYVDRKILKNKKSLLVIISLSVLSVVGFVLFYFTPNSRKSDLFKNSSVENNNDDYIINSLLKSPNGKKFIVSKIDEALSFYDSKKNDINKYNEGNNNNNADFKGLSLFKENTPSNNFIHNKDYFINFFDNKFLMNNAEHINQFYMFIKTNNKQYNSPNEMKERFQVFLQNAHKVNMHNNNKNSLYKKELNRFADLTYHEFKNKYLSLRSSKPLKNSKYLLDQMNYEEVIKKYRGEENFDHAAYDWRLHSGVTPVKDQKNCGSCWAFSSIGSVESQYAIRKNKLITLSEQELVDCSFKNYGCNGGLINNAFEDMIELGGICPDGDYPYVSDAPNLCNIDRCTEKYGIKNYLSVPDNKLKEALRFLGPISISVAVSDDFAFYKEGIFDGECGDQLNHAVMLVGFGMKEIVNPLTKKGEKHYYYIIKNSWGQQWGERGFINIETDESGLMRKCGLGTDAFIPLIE
One number for each entry, in nM.

Example molecules with recorded IC50:
Molecule: N/C(S)=N/N=C(\C=C\c1ccccc1)c1ccc(Cl)c(Cl)c1
Experimental Endpoint: IC50
Recorded Number: 470
//
Molecule: CCCC/C(=N\NC(N)=S)c1ccc(Cl)c(Cl)c1
Experimental Endpoint: IC50
Recorded Number: 620
//
Molecule: N/C(S)=N/N=C(\CCc1ccccc1)c1ccc(Cl)c(Cl)c1
Experimental Endpoint: IC50
Recorded Number: 2600
//
Molecule: Cc1ccc(/C(=N\N=C(\N)S)c2ccc(Cl)c(Cl)c2)cc1
Experimental Endpoint: IC50
Recorded Number: 1800
//
Molecule: N/C(S)=N/N=C(\COc1ccccc1)c1ccc(Cl)c(Cl)c1
Experimental Endpoint: IC50
Recorded Number: 375
//
Molecule: N/C(S)=N/N=C(/c1ccc(Cl)c(Cl)c1)C1CCCCC1
Experimental Endpoint: IC50
Recorded Number: 14000
//
Molecule: N/C(S)=N/N=C(\Cc1ccccc1)c1ccc(Cl)c(Cl)c1
Experimental Endpoint: IC50
Recorded Number: 8400

Here is another molecule to look at.
IN: Form field: reported IC50 of N/C(S)=N/N=C(/c1ccc(Cl)c(Cl)c1)C1CC1c1ccccc1 (stereo not drawn)
OUT: 640
